# experimental-protocol: qHTS assay to identify small molecule agonists of the androgen receptor (AR) signaling pathway in the presence of an antagonist - cell viability counter screen (AID 1259379); further: nearly all actives have a fitted effect of over 25% in size
# condition-set: MDA-kb2 viability, CellTiter-Fluor, 16 h; series mostly up to 92.4 µM
Records with an inconclusive call do not appear. Active and inactive are the calls of the source. The call rests on the fitted dose curve; in most records, active means well fitted cell-killing curve with a large enough effect in the repeat runs; inconclusive means weak or mixed curves, or effect the other way; inactive means flat fitted curve, though single readings scatter.
Outcome field: choose from active, inactive

Study these solved cases before continuing.
>>> qualitative_label("C1CCC(NC2CCCCC2)CC1")
"inactive"
>>> qualitative_label("Cc1cc(-c2ccc(N)c(C)c2)ccc1N")
"inactive"
>>> qualitative_label("CCCC[N+]1(C)CCCCC1")
"inactive"
>>> qualitative_label("COCC(=O)N(c1c(C)cccc1C)C(C)C(=O)OC (configuration not stated)")
"inactive"
>>> qualitative_label("CC(=O)O")
"inactive"
>>> qualitative_label("CCC(=O)C(CC(C)N(C)C)(c1ccccc1)c1ccccc1 (configuration not stated)")
"inactive"

Qu. Please state the recorded outcome for this compound: CCCC[n+]1cccc(C)c1
Ans. inactive

Qu. Hey, what did the test say about Nc1ccc(-c2ccc(N)cc2)cc1 ?
Ans. inactive

Qu. Kindly provide the recorded test outcome for the following compound: COc1ccccc1N
Ans. inactive

Qu. Could you kindly confirm the outcome this assay logged for CCC[N+]1(C)CCCCC1 ?
Ans. inactive

Qu. Given CCCCn1cc[n+](C)c1C , state the outcome it received in this test.
Ans. inactive

Qu. In this assay, the call recorded for O=S(=O)(O)O was what?
Ans. inactive

Qu. Recorded test outcome, item O=c1nc(O)n(Cl)c(=O)n1Cl
Ans. inactive

Qu. // return assay outcome for O=[N+]([O-])c1ccccc1O
Ans. inactive

Qu. So what was the verdict on CC(Cl)(Cl)C(=O)O in this test?
Ans. inactive

Qu. State the result this test recorded for CNC .
Ans. inactive

Qu. Please indicate how the test categorized O=[N+]([O-])O .
Ans. inactive

Qu. Tell me the assay call for CCCCCCn1cc[n+](C)c1 please.
Ans. active

Qu. How did this test come out for Nc1ccccc1 ?
Ans. inactive

Qu. Short answer needed: outcome of this test for CCCn1cc[n+](C)c1 ?
Ans. inactive

Qu. For O=C(O)C(Cl)Cl , what call appears in the results of this test?
Ans. inactive

Qu. Assay outcome for O=C(O)CC(O)(CC(=O)O)C(=O)O : what was it?
Ans. inactive

----------
# experimental-protocol: qHTS assay to identify small molecule antagonists of the estrogen receptor beta (ER-beta) signaling pathway - cell viability counter screen (AID 1259382);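 further: HEK293T cells carrying ER-beta-UAS-bla reporter stimulated with estradiol; nearly all actives have a fitted effect of over 55% in size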
# condition-set: ER-beta-UAS-bla HEK293T viability, CellTiter-Glo luminescence, 16 h; series mostly up to 92.4 µM
Records with an inconclusive call do not appear. Calls of active or inactive are those of the source. Calls follow the shape of the dose curve; as a rule, active = well fitted cell-killing curve with a large enough effect in the repeat runs; inconclusive = weak or mixed curves; inactive = flat fitted curve, though single readings scatter.
measure: outcome

Known results for molecules:
>>> meas_value("CC(Cl)(Cl)C(=O)O")
"inactive"
>>> meas_value("CCC(=O)C(CC(C)N(C)C)(c1ccccc1)c1ccccc1 (stereo not drawn)")
"inactive"
>>> meas_value("CC[N+]1(C)CCCC1")
"inactive"
>>> meas_value("COc1ccccc1N")
"inactive"
>>> meas_value("O=[N+]([O-])c1ccccc1O")
"inactive"

Qu. Answer with reported outcome of CCCC[N+]1(C)CCCC1
Ans. inactive

Qu. Give the reported value of outcome for this record: O=C(O)CCl
Ans. inactive

Qu. For the molecule Cc1cc(-c2ccc(N)c(C)c2)ccc1N , give its measured outcome value.
Ans. inactive

----------
# experimental-protocol: qHTS assay to identify small molecule antagonists of the androgen receptor (AR) signaling pathway - cell viability counter screen (AID 743033; further: nearly all actives have a fitted effect of over 45% in size)
# condition-set: AR-bla HEK293 viability, CellTiter-Glo luminescence, 16 h; series mostly up to 58.5 µM
Records with an inconclusive call do not appear. Activity calls are given as the source filed them. The call rests on the fitted dose curve; in most records, active means well fitted cell-killing curve with a large enough effect in the repeat runs; inconclusive means weak or mixed curves; inactive means no such curve, though single readings can be large or run the other way.
measure: Potency

>>> meas_value("CC(=O)O")
"inactive"
>>> meas_value("O=P1(N(CCCl)CCCl)NCCCO1 (configuration not stated)")
"inactive"
>>> meas_value("O=C(O)CC(O)(CC(=O)O)C(=O)O")
"inactive"
>>> meas_value("COCC(=O)N(c1c(C)cccc1C)C(C)C(=O)OC (configuration not stated)")
"inactive"

Now for the compound whose Potency we want.
Qu. Return value of Potency for input CCCC[n+]1cccc(C)c1 , no commentary.
Ans. inactive

----------
# experimental-protocol: qHTS assay to identify small molecule antagonists of the glucocorticoid receptor (GR) signaling pathway - cell viability counter screen (AID 720693); further: nearly all actives have a fitted effect of over 55% in size
# condition-set: GR-bla HeLa viability, CellTiter-Glo luminescence, 18 h, with 5 nM dexamethasone present; series mostly up to 58.5 µM
Results filed as inconclusive are left out. The source made the active and inactive calls. Calls come from the whole dose curve; as a rule, active = well fitted cell-killing curve with a large enough effect in the repeat runs; inconclusive = weak or mixed curves, or effect the other way; inactive = no such curve, though single readings can be large or run the other way.
measure: outcome

Solved cases (4 shown):
>>> meas_value("C[N+](C)(C)Cc1ccccc1")
"inactive"
>>> meas_value("OCCOc1ccccc1")
"inactive"
>>> meas_value("O=C(O)C(Cl)(Cl)Cl")
"inactive"
>>> meas_value("CCCC[n+]1ccc(C)cc1")
"inactive"

// next item, outcome requested
Qu. Note down outcome recorded for COP(=O)(OC)OC=C(Cl)Cl
Ans. inactive

----------
# target-of-assay: Nuclear receptor subfamily 1 group I member 3 (Homo sapiens) (UniProt Q14994)
# Sequence (Q14994 whole entry, looked up): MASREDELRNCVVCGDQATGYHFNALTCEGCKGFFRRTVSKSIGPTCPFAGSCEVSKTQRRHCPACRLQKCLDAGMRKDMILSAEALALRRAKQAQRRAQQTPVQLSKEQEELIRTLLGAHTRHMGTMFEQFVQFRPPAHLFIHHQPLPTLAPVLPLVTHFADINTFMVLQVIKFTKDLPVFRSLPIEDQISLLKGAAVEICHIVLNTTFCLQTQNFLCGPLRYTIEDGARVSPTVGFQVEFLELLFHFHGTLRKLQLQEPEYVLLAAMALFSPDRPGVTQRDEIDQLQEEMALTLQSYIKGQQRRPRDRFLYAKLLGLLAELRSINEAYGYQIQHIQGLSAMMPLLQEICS
# experimental-protocol: qHTS assay to identify small molecule agonists of the constitutive androstane receptor (CAR) signaling pathway (AID 1224839);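 further: HepG2 cells stably carrying human CAR and a CYP2B6 luciferase reporter; nearly all actives have a fitted effect of over 15% in size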
# condition-set: HepG2 hCAR CYP2B6-luciferase, agonist mode, 24 h; series mostly up to 92.4 µM
Inconclusive results are not listed. Activity calls are given as the source filed them. Calls follow the shape of the dose curve; as a rule, active = well fitted activation curve with a large enough effect in the repeat runs; inconclusive = weak or mixed curves; inactive = no such curve, though single readings can be large or run the other way.
Field 'call' accepts TRUE for active, FALSE for inactive

Qu. Entry CCC(=O)C(CC(C)N(C)C)(c1ccccc1)c1ccccc1 (configuration not stated) : call = ?
Ans. FALSE

Qu. Test call, this compound: O=C(O)c1ccccc1O
Ans. FALSE

Qu. Write down the call the test reported for this compound. Item: COCC(=O)N(c1c(C)cccc1C)C(C)C(=O)OC (configuration not stated)
Ans. FALSE

Qu. State the result this test recorded for CC(=O)[O][Hg][c]1ccccc1 .
Ans. FALSE

Qu. Status in this test for OCCOc1ccccc1 ?
Ans. FALSE

----------
# target-of-assay: Estrogen receptor (Homo sapiens) (UniProt P03372)
# Sequence (P03372 whole entry, looked up): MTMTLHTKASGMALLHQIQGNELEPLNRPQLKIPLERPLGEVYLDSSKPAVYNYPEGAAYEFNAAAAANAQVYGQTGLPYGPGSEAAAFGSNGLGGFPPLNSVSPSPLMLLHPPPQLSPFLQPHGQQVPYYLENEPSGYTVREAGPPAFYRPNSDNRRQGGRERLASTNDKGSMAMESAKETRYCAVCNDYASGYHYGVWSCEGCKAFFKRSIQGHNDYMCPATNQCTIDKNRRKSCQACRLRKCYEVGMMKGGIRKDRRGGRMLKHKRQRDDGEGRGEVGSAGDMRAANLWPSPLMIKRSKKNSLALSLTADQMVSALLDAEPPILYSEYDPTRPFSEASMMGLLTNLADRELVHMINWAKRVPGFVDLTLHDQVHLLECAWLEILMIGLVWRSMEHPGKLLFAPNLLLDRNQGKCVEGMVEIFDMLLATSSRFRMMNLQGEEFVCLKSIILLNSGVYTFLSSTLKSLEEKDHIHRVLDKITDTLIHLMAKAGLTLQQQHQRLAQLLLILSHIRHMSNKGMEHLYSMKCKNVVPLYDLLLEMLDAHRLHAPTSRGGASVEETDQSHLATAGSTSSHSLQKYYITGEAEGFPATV
# experimental-protocol: qHTS assay to identify small molecule antagonists of the estrogen receptor alpha (ER-alpha) signaling pathway using the BG1 cell line in the presence of 0.1 nM 17-beta-estradiol (AID 1259244); further: nearly all actives have a fitted effect of over 50% in size
# condition-set: VM7Luc4E2 (BG1) ERE-luciferase, antagonist mode, 0.1 nM E2, 22 h; series mostly up to 92.4 µM
Results filed as inconclusive are left out. Calls of active or inactive are those of the source. The call rests on the fitted dose curve; in most records, active means well fitted inhibition curve with a large enough effect in the repeat runs; inconclusive means weak or mixed curves; inactive means no such curve, though single readings can be large or run the other way.
Please state which outcome applies, choosing from Yes (active), No (inactive)

Check out these entries, answers already filled in.
>>> qualitative_label("Nc1ccc(Cl)cc1")
"No"
>>> qualitative_label("O=C(O)c1nc(Cl)ccc1Cl")
"No"
>>> qualitative_label("OCCOc1ccccc1")
"No"
>>> qualitative_label("C[C@]12CCC(=O)C=C1CC[C@@H]1[C@@H]2CC[C@]2(C)C(=O)CC[C@@H]12")
"No"
>>> qualitative_label("O=C(O)C(Cl)Cl")
"No"

Now for another entry.
Qu. For this molecule, state the assay outcome: COP(=O)(OC)OC=C(Cl)Cl
Ans. No

----------
# experimental-protocol: qHTS assay to identify small molecule antagonists of the estrogen related receptor signaling pathway with the pleiotropic PPARgamma coactivator (PGC) from Tox21 10K library (AID 1224841); further: actives are mostly falling curves and most rising ones were filed inactive; nearly all actives have a fitted effect of over 50% in size
# condition-set: PGC/ERR reporter cell line, ONE-Glo luciferase, 18 h; series mostly up to 92.4 µM
Inconclusive results are not listed. Active and inactive are the calls of the source. How the calls were made is not given here.
measure: outcome

>>> meas_value("O=c1[nH]c(=O)n(Cl)c(=O)n1Cl")
"inactive"
>>> meas_value("COCC(=O)N(c1c(C)cccc1C)C(C)C(=O)OC (configuration not stated)")
"inactive"
>>> meas_value("O=[N+]([O-])c1ccccc1O")
"inactive"
>>> meas_value("O=C(O)CCl")
"inactive"
>>> meas_value("O=c1nc(O)n(Cl)c(=O)n1Cl")
"inactive"

Qu. Indicate the recorded outcome value for this compound: OCCOc1ccccc1
Ans. inactive

Qu. // fetch outcome given entry CCOP(=S)(OCC)Oc1ccc2c(C)c(Cl)c(=O)oc2c1
Ans. inactive

----------
# target-of-assay: Cytochrome P450 2D6 (Homo sapiens) (UniProt P10635)
# Sequence (P10635 whole entry, looked up): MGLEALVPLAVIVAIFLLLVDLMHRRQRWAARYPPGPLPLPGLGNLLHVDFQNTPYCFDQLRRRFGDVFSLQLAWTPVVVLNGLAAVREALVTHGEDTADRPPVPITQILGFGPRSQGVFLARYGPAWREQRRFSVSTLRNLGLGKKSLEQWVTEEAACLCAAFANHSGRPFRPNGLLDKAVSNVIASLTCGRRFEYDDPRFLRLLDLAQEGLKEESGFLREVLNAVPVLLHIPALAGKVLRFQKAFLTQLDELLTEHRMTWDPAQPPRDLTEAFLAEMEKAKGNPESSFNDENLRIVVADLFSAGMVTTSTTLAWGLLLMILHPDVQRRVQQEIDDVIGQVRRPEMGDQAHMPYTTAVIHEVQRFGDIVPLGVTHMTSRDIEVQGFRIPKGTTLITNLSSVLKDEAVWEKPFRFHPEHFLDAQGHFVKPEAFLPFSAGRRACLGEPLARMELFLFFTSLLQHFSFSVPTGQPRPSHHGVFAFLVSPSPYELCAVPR
# experimental-protocol: Cytochrome P450 Family 2 Subfamily D Member 6 (CYP2D6) small molecule antagonists: luciferase reporter qHTS assay (AID 1671196); further: nearly all actives have a fitted effect of over 50% in size
# condition-set: P450-Glo CYP2D6 enzyme assay, luciferin luminescence, 1 h; series mostly up to 115 µM
# Description: U.S. Tox21 Program National Center for Advancing Translational Sciences [NCATS] U.S. Environmental Protection Agency [EPA] National Institutes of Environmental Health Sciences [NIEHS] National Toxicology Program [NTP] U.S. Food and Drug Administration [FDA] […] The luciferin products formed are detected with a luciferin detection reagent, and the amount of light produced is proportional to CYP activity. […]
Records with an inconclusive call do not appear. Activity calls are given as the source filed them. Calls follow the shape of the dose curve; as a rule, active = well fitted inhibition curve with a large enough effect in the repeat runs; inconclusive = weak or mixed curves; inactive = no such curve, though single readings can be large or run the other way.
measure: outcome

>>> meas_value("OCCOc1ccccc1")
"inactive"
>>> meas_value("CCCC[n+]1ccccc1")
"inactive"
>>> meas_value("CC[n+]1ccccc1")
"inactive"
